Test system: SNB-78
protocol: NCI tumour cell line growth inhibition, 48 h
Activity calls are given as the source filed them. Cut-off read from the data, not from the text of the source: active = GI50 up to about 1.1 µM and inactive = higher.
Would you kindly list GI50 for each of these compounds?

Here are 8 compounds together with their reported answers.
compound	measurementTarget	GI50
N#CC1(Cc2ccccc2Cl)c2ccccc2C=CN1C(=O)c1ccccc1 (configuration not stated)	SNB-78	> 100 µM (inactive)
COc1cc2c(cc1OC)-c1c3cc(O)ccc3nn[n+]1CC2	SNB-78	> 100 µM (inactive)
CCN(CC)CCCNC(=O)c1ccccc1Nc1c(Cl)cccc1Cl	SNB-78	15 µM (inactive)
Nc1nc(N)nc(-c2ccccc2NS(=O)(=O)c2ccc([N+](=O)[O-])cc2)n1	SNB-78	> 74.1 µM (inactive)
COC(=O)C1C(OCc2ccccc2)C2CCC1(OC)C=C2C (configuration not stated)	SNB-78	> 100 µM (inactive)
CCOC(=O)CC1NC(=O)CS1 (configuration not stated)	SNB-78	> 100 µM (inactive)
CC(=O)O[C@H]1CCN2C(=O)C=CC(OCc3ccccc3)C12 (some centres not stated)	SNB-78	> 100 µM (inactive)
O=C1C=CC(=O)c2c1ccc1c3ccccc3n(-c3ccccc3)c21	SNB-78	20.3 µM (inactive)

# map each compound to its GI50
1. Cc1c2ccncc2c(C)c2c1[nH]c1ccc(O)c(OCC(F)(F)F)c12
2. COC(=O)/C=C\C1C(C(=O)OC)C2(C(=O)OC)CCC1(C(=O)OC)N2 (configuration not stated)
3. C#CCOCn1cnc2ncnc(N)c21

OUTPUT:
1: 4.47 µM (inactive); 2: 10.2 µM (inactive); 3: > 100 µM (inactive)

Give me GI50 for each of these compounds, listed below.
1. O=C(O)C(CS)NCc1c2ccccc2[n+]([O-])c2ccccc12 (configuration not stated)
2. O=C(CCc1nnc2s/c(=C\c3ccc([N+](=O)[O-])cc3)c(=O)n12)Nc1ccc(Cl)c(Cl)c1
3. [N-]=[N+]=NC1(c2ccccc2)C(=O)C(Cl)=C(c2ccccc2)N(c2ccccc2)C1=O (configuration not stated)
4. COc1ccc(-c2cc(-c3ccco3)c(C#N)c(=O)[nH]2)cc1
5. COC(=O)C(C(=O)C(=O)Nc1c(Cl)cc([N+](=O)[O-])cc1Cl)c1csc(-n2nc(C3=CCCCC3)cc2-c2ccccc2)n1 (configuration not stated)
6. CCOC(=O)C(C)OC(=O)c1ccc(C)cc1 (configuration not stated)
7. CCOC(=O)C(=O)Nc1nc2c(OCC)cccc2s1
8. CS(=O)(=O)CSCSSCS(C)(=O)=O

OUTPUT:
38 µM (inactive)
25.4 µM (inactive)
31.4 µM (inactive)
> 100 µM (inactive)
40 µM (inactive)
> 100 µM (inactive)
> 100 µM (inactive)
49.4 µM (inactive)

Parameters: items (list). Returns: GI50 for each item.
1. CCCCCCCCCCCCCCC(O)C1CCC(C(O)CCC(O)CCCCCC(O)CC2=CC(C)OC2=O)O1 (configuration not stated)
2. CN(C)CCNC(=O)c1cccc2c1nc(-c1ccccc1)c1ccccc12
3. CCCCCCCCCCCCCCCC(=O)OCC1OC(n2ccc(N)nc2=O)C(O)C1O (configuration not stated)

OUTPUT:
1: 1.49 µM (inactive); 2: 10.4 µM (inactive); 3: > 100 µM (inactive)

Just for reference, ChEMBL document CHEMBL1201862 is where these values come from.
